Give measured IC50 for each item. Keep answers brief.
- Test system: SUDHL5 cells
- Method Notes: Induction of cytotoxicity in SUDHL5 cells (Assay 6)
- Type: cell-based
- Run Parameters: 5 h, CellTiter-Glo; read-out: Cytotox SUDHL5 IC50 (median)
- Procedure: Assay 6 Induction of Cytotoxicity Upon Treatment of Cells with Selected Compounds In principle, compounds that induce apoptosis will concomitantly induce cell cytotoxicity. Therefore, cytotoxicity assays were run in parallel in SUDHL5 and SUDHL10 cells. As a control, medium without cells was also added to the plate. Cells were incubated in a humidified incubator at 37° C. overnight. […] Finally, luminescence was read at 0.1 ms, with a gain of 3000 using the PHERAstar FS microplate reader (BMG Labtech).
The reply should consist of the numeric value with the unit placed after it.

Completed entries (count: 4):
Cc1c2c(nn1C)C(CCN1CCOCC1)OCCCCn1c(C(=O)O)c(CCCOc3cccc4ccccc34)c3cccc-2c31 (single isomer, unassigned; stereoisomer 2) [Example 6]
22000 nM
CCc1c2c(nn1C)C(CCN1CCOCC1)OCCCCn1c(C(=O)O)c(CCCOc3cccc4ccccc34)c3ccc(F)c-2c31 (single isomer, unassigned; enantiomer 1) [Example 11]
95 nM
Cc1c2c(nn1C)C(CCN1CCOCC1)OCCCCn1c(C(=O)O)c(CCCOc3cccc4ccccc34)c3ccc(Cl)c-2c31 (single isomer, unassigned; enantiomer 2) [Example 15]
2500 nM
CCc1c2c(nn1C)C(CCN1CCOCC1)OCCCCn1c(C(=O)O)c(CCCOc3cccc4cc(F)ccc34)c3ccc(Cl)c-2c31 (single isomer, unassigned; enantiomer 1) [Example 23]
7.8 nM

State recorded IC50 for all listed compounds.
1. CCC1OCCCCn2c(C(=O)O)c(CCCOc3cccc4ccccc34)c3ccc(Cl)c(c32)-c2c1nn(C)c2C (single isomer, unassigned; enantiomer 2) [Example 30]
2. Cc1c2c(nn1C)C(CCN1CCOCC1)OCCCCn1c(C(=O)O)c(CCCOc3cccc4ccccc34)c3ccc(F)c-2c31 (single isomer, unassigned; enantiomer 1) [Example 8]
3. CCc1c2c(nn1C)C(CCN1CCOCC1)N(C)CCCCn1c(C(=O)O)c(CCCOc3cccc4ccccc34)c3ccc(Cl)c-2c31 (racemic) [Example 99]
4. CCc1c2c(nn1C)C(CCOC)OCCCCn1c(C(=O)O)c(CCCOc3cccc4cc(F)ccc34)c3ccc(Cl)c-2c31 (single isomer, unassigned; enantiomer 2) [Example 43]
5. CCc1c2c(nn1C)C(CCN1CCOCC1)OCCCCn1c(C(=O)O)c(CCCOc3cccc4cc(F)ccc34)c3ccc(Cl)c-2c31 (single isomer, unassigned; enantiomer 2) [Example 24]
6. CCc1c2c(nn1C)C(CCC1CCOCC1)OCCCCn1c(C(=O)O)c(CCCOc3cccc4cc(F)ccc34)c3ccc(Cl)c-2c31 (racemic) [Example 60]

29000 nM
76 nM
100 nM
18000 nM
1700 nM
77 nM
